Reference source for all entries: PubChem BioAssay AID2060904

tested on: 349418-098-R-PDC complex spheroid viability; experiment: Anticancer human tumor 349418-098-R-PDC patient-derived lung adenocarcinoma cell line growth inhibition [RAS]; details: second compound 0.0949 µM; first compound 3.16 µM; stronger effect = lower value;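 also: spheroids exposed to compound for seven days before viability readout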
READOUT TYPE: viability, T/C (%)

>  <MOLECULE>
Cc1nc(N2CCC3(CC2)COC(C)C3N)c(CO)nc1Sc1ccnc(N)c1Cl (stereo not drawn) + CCn1c(-c2cc(N3CCN(C)CC3)cnc2C(C)OC)c2c3cc(ccc31)-c1csc(n1)CC(NC(=O)C1CC1C)C(=O)N1CCCC(N1)C(=O)OCC(C)(C)C2

>  <READOUT TYPE>
viability, T/C

>  <RESULT NUMBER>
102

$$$$
>  <MOLECULE>
NC1c2ccccc2OC12CCN(c1cnc3c(N4CCCc5ncccc54)n[nH]c3n1)CC2 (stereo not drawn) + CCn1c(-c2cccnc2C(C)OC)c2c3cc(ccc31)N1CCOC(CC(NC(=O)C(C(C)C)N(C)C(=O)C3(F)CCN(C(=O)C#CC(C)(C)N(C)C)CC3)C(=O)N3CCCC(N3)C(=O)OCC(C)(C)C2)C1

>  <READOUT TYPE>
viability, T/C

>  <RESULT NUMBER>
89.7

$$$$
>  <MOLECULE>
CC(C)NCC(C(=O)N1CCN(c2ncnc3c2C(C)CC3O)CC1)c1ccc(Cl)cc1 (stereo not drawn) + CCn1c(-c2cc(N3CCN(C)CC3)cnc2C(C)OC)c2c3cc(ccc31)-c1csc(n1)CC(NC(=O)C1CC1C)C(=O)N1CCCC(N1)C(=O)OCC(C)(C)C2

>  <READOUT TYPE>
viability, T/C

>  <RESULT NUMBER>
25.4

$$$$
>  <MOLECULE>
CCC(CC)c1cc(NC2CCC(N)C2)n2nccc2n1 (stereo not drawn) + CCn1c(-c2cc(N3CCN(C)CC3)cnc2C(C)OC)c2c3cc(ccc31)-c1csc(n1)CC(NC(=O)C1CC1C)C(=O)N1CCCC(N1)C(=O)OCC(C)(C)C2

>  <READOUT TYPE>
viability, T/C

>  <RESULT NUMBER>
2.85

$$$$
>  <MOLECULE>
CC(Nc1ccc2c(c1)OCCn1cc(N3C(=O)OCC3C(F)F)nc1-2)C(N)=O (stereo not drawn) + CCn1c(-c2cc(N3CCN(C)CC3)cnc2C(C)OC)c2c3cc(ccc31)-c1csc(n1)CC(NC(=O)C1CC1C)C(=O)N1CCCC(N1)C(=O)OCC(C)(C)C2

>  <READOUT TYPE>
viability, T/C

>  <RESULT NUMBER>
25.5

$$$$
>  <MOLECULE>
CC(Nc1ccc2c(c1)OCCn1cc(N3C(=O)OCC3C(F)F)nc1-2)C(N)=O (stereo not drawn) + CCn1c(-c2cccnc2C(C)OC)c2c3cc(ccc31)N1CCOC(CC(NC(=O)C(C(C)C)N(C)C(=O)C3(F)CCN(C(=O)C#CC(C)(C)N(C)C)CC3)C(=O)N3CCCC(N3)C(=O)OCC(C)(C)C2)C1

>  <READOUT TYPE>
viability, T/C

>  <RESULT NUMBER>
98.1

$$$$
>  <MOLECULE>
CCC(CC)c1cc(NC2CCC(N)C2)n2nccc2n1 (stereo not drawn) + CCn1c(-c2cccnc2C(C)OC)c2c3cc(ccc31)N1CCOC(CC(NC(=O)C(C(C)C)N(C)C(=O)C3(F)CCN(C(=O)C#CC(C)(C)N(C)C)CC3)C(=O)N3CCCC(N3)C(=O)OCC(C)(C)C2)C1

>  <READOUT TYPE>
viability, T/C

>  <RESULT NUMBER>
2.89

$$$$
>  <MOLECULE>
Cc1nc(N2CCC3(CC2)COC(C)C3N)c(CO)nc1Sc1ccnc(N)c1Cl (stereo not drawn) + CCn1c(-c2cccnc2C(C)OC)c2c3cc(ccc31)N1CCOC(CC(NC(=O)C(C(C)C)N(C)C(=O)C3(F)CCN(C(=O)C#CC(C)(C)N(C)C)CC3)C(=O)N3CCCC(N3)C(=O)OCC(C)(C)C2)C1

>  <READOUT TYPE>
viability, T/C

>  <RESULT NUMBER>
101

$$$$
